Reported % activation functional assay at 1 μM values for a set of molecules
# system_tested: Human opiate κ receptors (Homo sapiens)
# Sequence (P41145 whole entry): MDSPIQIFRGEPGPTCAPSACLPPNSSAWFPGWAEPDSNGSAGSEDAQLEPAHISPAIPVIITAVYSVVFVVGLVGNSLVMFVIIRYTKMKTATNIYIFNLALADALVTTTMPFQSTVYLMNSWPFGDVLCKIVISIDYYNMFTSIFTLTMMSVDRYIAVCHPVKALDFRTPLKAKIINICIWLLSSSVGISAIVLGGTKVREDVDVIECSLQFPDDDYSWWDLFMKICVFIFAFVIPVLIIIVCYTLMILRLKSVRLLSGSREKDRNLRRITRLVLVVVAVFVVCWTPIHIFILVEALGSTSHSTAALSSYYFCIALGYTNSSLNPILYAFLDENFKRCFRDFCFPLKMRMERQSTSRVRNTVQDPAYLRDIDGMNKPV
# assay_name: κ opioid receptor functional assay, [35S]GTPγS binding (assay C)
# Type: biochemical

> print(dat)
                                   molecule                     measured.parameter  observed.result
1  COC(=O)N1CCN(C(=O)Cc2ccc(Cl)c(Cl)c2)C2C(N3CCC(C(N)=O)C3)CCCC21.Cl (mixture of isomers)  % activation functional assay at 1 μM              99%

Return the recorded % activation functional assay at 1 μM value; entry: O=C(Cc1ccc(Cl)c(Cl)c1)N1CCN(S(=O)(=O)Cc2ccon2)[C@H]2CCC[C@H](N3CC[C@H](O)C3)[C@H]21
108%

Specify measured % activation functional assay at 1 μM for COC(=O)N1CCN(C(=O)Cc2ccc(Cl)c(Cl)c2)[C@@H]2[C@@H](N(C)C)CCC[C@@H]21.Cl (racemic) .
92%

Fill in reported % activation functional assay at 1 μM for this entry: COC(=O)N1CCN(C(=O)Cc2ccc(Cl)c(Cl)c2)C2C(N3CC(O)C3)CCCC21 (racemic)
113%

Input COC(=O)N1CCN(C(=O)Cc2ccc(Cl)c(Cl)c2)[C@@H]2[C@@H](N3CCCC3)CCC[C@@H]21 , output reported % activation functional assay at 1 μM.
100%

Report % activation functional assay at 1 μM for CNC(=O)C(=O)N1CCN(C(=O)Cc2ccc(Cl)c(Cl)c2)[C@@H]2[C@@H](N3CC[C@H](O)C3)CCC[C@@H]21
103%

Fill in reported % activation functional assay at 1 μM for this entry: CCNS(=O)(=O)N1CCN(C(=O)Cc2ccc(Cl)c(Cl)c2)C2C(N3CCC(O)C3)CCCC21.Cl (centres unmarked)
106%

Given the molecule O=C(c1ncccn1)N1CCN(C(=O)Cc2ccc(Cl)c(Cl)c2)C2C(N3CCCC3)CCCC21 (racemic) , write its reported % activation functional assay at 1 μM.
111%

For the molecule CNS(=O)(=O)N1CCN(C(=O)Cc2ccc(Cl)c(Cl)c2)C2C(N3CCC(O)C3)CCCC21.Cl (centres unmarked) , give its measured % activation functional assay at 1 μM value.
104%

Dear colleague, please send me the reported % activation functional assay at 1 μM for CS(=O)(=O)N1CCN(C(=O)Cc2ccc(Cl)c(F)c2)C2C(N3CCC(O)C3)CCCC21.Cl (centres unmarked) when you can.
105%

Specify reported % activation functional assay at 1 μM for the molecule shown: CC(C)NC(=O)N1CCN(C(=O)Cc2ccc(Cl)c(F)c2)C2C(N3CCC(O)C3)CCCC21.Cl (centres unmarked)
102%

Return value of % activation functional assay at 1 μM for input CN(C)S(=O)(=O)N1CCN(C(=O)Cc2ccc(Cl)c(Cl)c2)C2C(N3CCC(O)C3)CCCC21.Cl (centres unmarked) , no commentary.
104%

For the molecule CC(C)NS(=O)(=O)N1CCN(C(=O)Cc2ccc(Cl)c(Cl)c2)[C@@H]2[C@@H](N3CC[C@H](O)C3)CCC[C@@H]21 , give its reported % activation functional assay at 1 μM.
102%

Indicate its recorded % activation functional assay at 1 μM; the molecule in question is Cl.O=C(Cc1ccc(Cl)c(Cl)c1)N1CCN(S(=O)(=O)c2cn[nH]c2)C2CCCC(N3CCC(O)C3)C21 (centres unmarked)
95%

Assign % activation functional assay at 1 μM to the following record: Cl.O=C(Cc1ccc(Cl)c(Cl)c1)N1CCN(C(=O)NCc2ccccc2)[C@H]2CCC[C@H](N3CCCC3)[C@H]21 (racemic)
81%

Give the measured % activation functional assay at 1 μM for O=C(Cc1ccc(Cl)c(Cl)c1)N1CCN(S(=O)(=O)NC2CCCC2)[C@H]2CCC[C@H](N3CC[C@H](O)C3)[C@H]21
105%

Specify measured % activation functional assay at 1 μM for COC(=O)C(=O)N1CCN(C(=O)Cc2ccc(Cl)c(Cl)c2)C2C(N3CCCC3)CCCC21.Cl (centres unmarked) .
98%

Identify % activation functional assay at 1 μM associated with the molecule CS(=O)(=O)N1CCN(C(=O)Cc2ccc(F)c(Cl)c2)C2C(N3CCC(O)C3)CCCC21.Cl (centres unmarked)
99%

Note down % activation functional assay at 1 μM recorded for CNC(=O)C(=O)N1CCN(C(=O)Cc2ccc(Cl)c(Cl)c2)[C@@H]2[C@@H](N3CCCC3)CCC[C@@H]21.Cl
104%
